Assay: Stability in human liver S9 fraction (HLS9)
Type: in vitro ADME
Settings: liver S9 fraction, pH 7.4; human liver S9 0.4 mg protein/mL, 5 μM test compound, 37° C.
Collected microsomal CLint at 5 μM values appear next to each entry.
Give the quantity in µL/min/mg, number only.

Q: Can you share its microsomal CLint at 5 μM? I mean this compound: CC(C)OC(=O)[C@H](C)NP(=O)(OC[C@H]1OC[C@@H](n2ccc(=O)[nH]c2=O)O1)Oc1ccccc1 (stereo partly shown) [Example 1]
Ans: 12

Q: Can you share its microsomal CLint at 5 μM? I mean this compound: COC(=O)[C@H](Cc1ccccc1)NP(=O)(OC[C@H]1OC[C@@H](n2ccc(N)nc2=O)O1)Oc1ccccc1 (single isomer, unassigned) [28 dia-2]
Ans: 20

Q: Can you share its microsomal CLint at 5 μM? I mean this compound: COC(=O)[C@H](C)NP(=O)(OC[C@H]1OC[C@@H](n2ccc(N)nc2=O)O1)Oc1ccc(Br)cc1 (single isomer, unassigned) [27 dia-2]
Ans: 57

Q: Can you share its microsomal CLint at 5 μM? I mean this compound: CC[C@@H](C)OC(=O)[C@H](C)NP(=O)(OC[C@H]1OC[C@@H](n2cc(F)c(N)nc2=O)O1)Oc1ccccc1 (single isomer, unassigned) [32 dia-2]
Ans: 27

----------
Assay: Stability in human intestinal S9 fraction (HIS9)
Assay type: in vitro ADME
Settings: intestinal S9 fraction, pH 7.4; human intestinal S9 0.4 mg protein/mL, 5 μM test compound, 37° C.
Collected microsomal CLint at 5 μM values appear next to each entry.
Give the quantity in µL/min/mg, number only.

[
  {
    "Molecule": "COC(=O)[C@H](Cc1ccccc1)NP(=O)(OC[C@H]1OC[C@@H](n2ccc(N)nc2=O)O1)Oc1ccccc1 (single isomer, unassigned)",
    "microsomal CLint at 5 μM (µL/min/mg)": 40
  },
  {
    "Molecule": "CCC[C@H](C)OC(=O)[C@H](C)NP(=O)(OC[C@H]1OC[C@@H](n2cc(F)c(N)nc2=O)O1)Oc1cccc(C2CC2)c1 (single isomer, unassigned)",
    "microsomal CLint at 5 μM (µL/min/mg)": 18
  },
  {
    "Molecule": "CCC[C@@H](C)OC(=O)[C@H](C)NP(=O)(OC[C@H]1OC[C@@H](n2ccc(N)nc2=O)O1)Oc1ccccc1 (single isomer, unassigned)",
    "microsomal CLint at 5 μM (µL/min/mg)": 11
  }
]

# input for lookup
Q: Can you share its microsomal CLint at 5 μM? I mean this molecule: CC[C@@H](C)OC(=O)[C@H](C)NP(=O)(OC[C@H]1OC[C@@H](n2cc(F)c(N)nc2=O)O1)Oc1ccccc1 (single isomer, unassigned)
Ans: 8

----------
System: Huh7
Assay: Cell cytotoxicity assay, HUH7
Assay type: cell-based
Conditions: Huh7 cells, 5 days at 37° C., XTT dye
Metric: log10 of CC50 (log10 of the value in nM)
Parameter value (number): base-10 log of CC50 in nM.

As a guide, the following entries are already answered.
[
  {
    "Molecule": "CCC(CC)OC(=O)[C@H](C)NP(=O)(OC[C@H]1OC[C@@H](n2ccc(N)nc2=O)O1)Oc1ccccc1 (single isomer, unassigned; dia-2) [21 dia-2]",
    "log10 of CC50": 1.85
  },
  {
    "Molecule": "COC(=O)[C@H](C)NP(=O)(OC[C@H]1OC[C@@H](n2ccc(N)nc2=O)O1)Oc1ccc(Br)cc1 (single isomer, unassigned; dia-1)",
    "log10 of CC50": 3.16
  },
  {
    "Molecule": "CCC[C@H](C)OC(=O)[C@H](C)NP(=O)(OC[C@H]1OC[C@@H](n2ccc(N)nc2=O)O1)Oc1ccccc1 (single isomer, unassigned; dia-1) [20 dia-1]",
    "log10 of CC50": 2.33
  },
  {
    "Molecule": "C[C@H](NP(=O)(OC[C@H]1OC[C@@H](n2ccc(N)nc2=O)O1)Oc1cccc2ccccc12)C(=O)OC1CCCC1 (single isomer, unassigned; dia-2) [22 dia-2]",
    "log10 of CC50": 1.60
  },
  {
    "Molecule": "CC(C)OC(=O)[C@H](C)NP(=O)(OC[C@H]1OC[C@@H](n2ccc(N)nc2=O)O1)Oc1cccc2ccccc12 (single isomer, unassigned; dia-1) [5 dia-1]",
    "log10 of CC50": 2.67
  }
]

Q: Item: Nc1ccn([C@@H]2CO[C@H](COP(=O)(N[C@@H](Cc3ccccc3)C(=O)OCc3ccccc3)Oc3cccc(C4CC4)c3)O2)c(=O)n1 (single isomer, unassigned; dia-1) [12 dia-1] Test system: Huh7 Read-out: log10 of CC50 Value: ?
Ans: 3.64

Q: Item: C[C@H](NP(=O)(OC[C@H]1OC[C@@H](n2ccc(N)nc2=O)O1)Oc1cccc2ccccc12)C(=O)OC1CCCCC1 (single isomer, unassigned; dia-1) [6 dia-1] Test system: Huh7 Read-out: log10 of CC50 Value: ?
Ans: 2.41

Q: Item: CCCC(CCC)COC(=O)[C@H](C)NP(=O)(OC[C@H]1OC[C@@H](n2ccc(N)nc2=O)O1)Oc1cccc2ccccc12 (single isomer, unassigned; dia-1) [14 dia-1] Test system: Huh7 Read-out: log10 of CC50 Value: ?
Ans: 2.33

Q: Item: C[C@H](NP(=O)(OC[C@H]1OC[C@@H](n2ccc(N)nc2=O)O1)Oc1cccc2ccccc12)C(=O)OC1CCCC1 (single isomer, unassigned; dia-1) [22 dia-1] Test system: Huh7 Read-out: log10 of CC50 Value: ?
Ans: 1.52

Q: Item: CC(C)OC(=O)[C@@H](C)NP(=O)(OC[C@H]1OC[C@@H](n2ccc(N)nc2=O)O1)Oc1ccccc1 (single isomer, unassigned; dia-1) [17 dia-1] Test system: Huh7 Read-out: log10 of CC50 Value: ?
Ans: 4.70

Q: Item: CCC[C@H](C)OC(=O)[C@H](C)NP(=O)(OC[C@H]1OC[C@@H](n2ccc(N)nc2=O)O1)Oc1ccccc1 (single isomer, unassigned; dia-2) [20 dia-2] Test system: Huh7 Read-out: log10 of CC50 Value: ?
Ans: 1.86

----------
Tested on: HepG2
Experiment: Cell cytotoxicity assay, HEPG2
Assay type: cell-based
Conditions: HepG2 cells, 5 days at 37° C., XTT dye
Collected CC50 values appear next to each entry.
Give the quantity in nM, number only.

[
  {
    "Compound": "CCC[C@H](C)OC(=O)[C@H](C)NP(=O)(OC[C@H]1OC[C@@H](n2ccc(N)nc2=O)O1)Oc1ccccc1 (single isomer, unassigned; dia-2) [20 dia-2]",
    "Value Reported": 60
  }
]

Q: Can you share its CC50? I mean this compound: CCCC(CCC)COC(=O)[C@H](C)NP(=O)(OC[C@H]1OC[C@@H](n2ccc(N)nc2=O)O1)Oc1cccc2ccccc12 (single isomer, unassigned; dia-1) [14 dia-1]
Ans: 16

Q: Can you share its CC50? I mean this compound: Nc1ccn([C@@H]2CO[C@H](COP(=O)(N[C@@H](Cc3ccccc3)C(=O)OCc3ccccc3)Oc3cccc(C4CC4)c3)O2)c(=O)n1 (single isomer, unassigned; dia-1) [12 dia-1]
Ans: 481

----------
Tested on: Huh7
Assay: Cell cytotoxicity assay, HUH7
Format: cell-based
Settings: Huh7 cells, 5 days at 37° C., XTT dye
Metric: CC50 (nM)
Give the quantity in nM, number only.

As a guide, the following entries are already answered.
[
  {
    "Compound": "CCC[C@H](C)OC(=O)[C@H](C)NP(=O)(OC[C@H]1OC[C@@H](n2ccc(N)nc2=O)O1)Oc1ccc(C2CC2)cc1 (single isomer, unassigned; dia-2) [16 dia-2]",
    "Value Reported": 152
  },
  {
    "Compound": "C[C@H](NP(=O)(OC[C@H]1OC[C@@H](n2ccc(N)nc2=O)O1)Oc1ccccc1)C(=O)OCc1ccccc1 (single isomer, unassigned; dia-1) [19 dia-1]",
    "Value Reported": 91
  }
]

# input for lookup
Q: Item: CC[C@@H](C)OC(=O)[C@H](C)NP(=O)(OC[C@H]1OC[C@@H](n2ccc(N)nc2=O)O1)Oc1ccc([Si](C)(C)C)cc1 (single isomer, unassigned; dia-1) Test system: Huh7 Read-out: CC50 Value: ?
Ans: 26

----------
Test system: HepG2
Assay: Cell cytotoxicity assay, HEPG2
Type: cell-based
Details: HepG2 cells, 5 days at 37° C., XTT dye
Collected log10 of CC50 values appear next to each entry.
Parameter value (number): base-10 log of CC50 in µM.

Q: Can you share its log10 of CC50? I mean this compound: CCCC(CCC)COC(=O)[C@H](C)NP(=O)(OC[C@H]1OC[C@@H](n2ccc(N)nc2=O)O1)Oc1ccccc1 (single isomer, unassigned; dia-2) [8 dia-2]
Ans: -1.77

Q: Can you share its log10 of CC50? I mean this compound: CCCC(CCC)COC(=O)C(Cc1ccccc1)NP(=O)(OCC1OCC(n2ccc(N)nc2=O)O1)Oc1ccccc1 (mixture of isomers)
Ans: -0.79

Q: Can you share its log10 of CC50? I mean this compound: CC(C)OC(=O)[C@@H](C)NP(=O)(OC[C@H]1OC[C@@H](n2ccc(N)nc2=O)O1)Oc1ccccc1 (single isomer, unassigned; dia-1)
Ans: 1.70

Q: Can you share its log10 of CC50? I mean this compound: C[C@H](NP(=O)(OC[C@H]1OC[C@@H](n2ccc(N)nc2=O)O1)Oc1cccc2ccccc12)C(=O)OC1CCCCC1 (single isomer, unassigned; dia-2) [6 dia-2]
Ans: -1.32

Q: Can you share its log10 of CC50? I mean this compound: C[C@H](NP(=O)(OC[C@H]1OC[C@@H](n2ccc(N)nc2=O)O1)Oc1ccccc1)C(=O)OCc1ccccc1 (single isomer, unassigned; dia-1) [19 dia-1]
Ans: -1.74

From: patent US11447511B2
